Test system: NCI-H23 lung
assay: NCI tumour cell line growth inhibition, 48 h
parameter: TGI (µM)
Write it as a number; the unit µM goes unstated.

molecule | TGI / µM
CC[C@H]1[C@@H]2C=C[C@@H]3[C@H]4C/C=C\C(=O)NCCC[C@@H]5NC(=O)/C(=C(O)/C=C/[C@@H]4C[C@@H]3[C@H]2C[C@H]1C)C5=O | 4.28
Cn1nc(C(=O)N2CC(CCl)c3c2cc(N)c2ccccc32)cc1NC(=O)Nc1cc(C(=O)N2CC(CCl)c3c2cc(N)c2ccccc32)nn1C (centres undefined) | 0.661
Oc1[nH]c2ccccc2c1N=NC(=S)Nc1cccc(Cl)c1 | 52.3
CC(=O)Oc1c2c(c(O)c3ccccc13)C(n1cnc3c(ncn3C3OC(CO)C4OC(C)(C)OC43)c1=N)CCC2 (centres undefined) | 36.7
CCOC(=O)Nc1ccc(-c2nc(-c3cccc(OCCN4CCOCC4)c3)c(-c3ccnc(Br)c3)[nH]2)cc1 | 5.6

Consider now this further molecule.
Qu. Return reported TGI; argument: O=C(Oc1ccccn1)c1cc2cc(CCl)ccc2oc1=O
Ans. 62.7
